Give measured T/C for each item. Keep answers brief.
- Tested on: L1210 leukemia ip in BDF1 mice, survival T/C
- assayExplanation: NCI In Vivo Anticancer Drug Screen. Data for tumor model L1210 Leukemia (intraperitoneal) in B6D2F1 (BDF1) mice
- conditionSummary: endpoint: mean survival time; dose: 200.0 mg/kg/injection; schedule: Q04DX003 (ip); vehicle: saline with Tween-80; higher = longer survival
Toxic doses and inconclusive results are not listed.

Would you please look over these solved cases?
| molecule | T/C |
| --- | --- |
| C1CN2CCC1CC2 | 93 % of control |
| OC1(c2ccccc2)c2ccccc2-c2ccccc21 | 93 % of control |
| O=C(O)CCC(C(=O)O)N1C(=O)C2C3CCC(C3)C2C1=O (stereo unspecified) | 95 % of control |
| C/C=C/CCC(C)=O | 100 % of control |
| N#CCCOc1ccc(Cl)cc1 | 99 % of control |

List reported T/C for each of these molecules:
1. CC(C)C(C(=O)O)N1C(=O)C2C3CCC(C3)C2C1=O (stereo unspecified)
2. Cc1cccc2c3c([nH]c12)CCSC3

output:
["103 % of control", "105 % of control"]

List reported T/C for each of these molecules:
1. Cc1ccc(S(=O)(=O)N(C)C)cc1N
2. CCCCCC(C)O[Si](C)Cc1ccccc1 (stereo unspecified)
3. CCCCC(=O)N(c1ccc(Nc2c3ccccc3nc3cc([N+](=O)[O-])ccc23)cc1)S(C)(=O)=O
4. CCOC(=O)/C=C1/Nc2cc(Cl)c(Cl)cc2NC1=O
5. O=C(Nc1ccccc1[N+](=O)[O-])OCc1ccc([N+](=O)[O-])cc1
6. CC(C)=C(C=O)CCC(C)C
7. N#CCCn1c(=S)sc2ccccc21

output:
97 % of control
97 % of control
100 % of control
95 % of control
105 % of control
93 % of control
106 % of control

List reported T/C for each of these molecules:
1. O=C(Cl)c1cc2ccccc2o1
2. CC/C=C(/C)CCC
3. Nc1ccc2ncsc2c1
4. O=C1OC(=O)C2C3C=CC(C3=C(c3ccccc3)c3ccccc3)C12 (stereo unspecified)
5. N#Cc1oc2ccccc2c1OC(=O)C(F)(F)F
6. COCc1nc2ccccc2[nH]1
7. CCCCc1ccc(-n2cnc3c(=O)[nH]c(N)nc32)cc1
8. CC(=O)NCC(S)c1ccc(Cl)cc1 (stereo unspecified)

output:
1: 92 % of control; 2: 93 % of control; 3: 95 % of control; 4: 90 % of control; 5: 95 % of control; 6: 97 % of control; 7: 97 % of control; 8: 93 % of control

----------
Give measured T/C for each item. Keep answers brief.
- Tested on: L1210 leukemia ip in BDF1 mice, survival T/C
- assayExplanation: NCI In Vivo Anticancer Drug Screen. Data for tumor model L1210 Leukemia (intraperitoneal) in B6D2F1 (BDF1) mice
- conditionSummary: endpoint: mean survival time; dose: 200.0 mg/kg/injection; schedule: Q01DX009 (ip); vehicle: Klucel (hydroxypropylcellulose) (HPC); higher = longer survival
Toxic doses and inconclusive results are not listed.

| molecule | T/C |
| --- | --- |
| c1ccc(Nc2nc3ccccc3o2)cc1 | 95 % of control |
| Cc1ccc(C(=O)NC(N)=O)cc1 | 95 % of control |
| CSc1ccc(OC(=O)Nc2ccc(Cl)c(Cl)c2)cc1C | 92 % of control |
| COc1cc(OC)c(NC(=O)Nc2ccc([N+](=O)[O-])cc2OC)cc1Cl | 95 % of control |
| O=C(O)COc1nc2ccccc2s1 | 96 % of control |
| O=[N+]([O-])c1cccc(C=Nc2cccc(C(F)(F)F)c2)c1 | 98 % of control |

List reported T/C for each of these molecules:
1. Cc1ccc(NC(=O)Oc2cc(C)c(Cl)cc2C(C)C)cc1
2. COc1ccc(C=Nc2ccc(Cl)cc2)cc1
3. Nc1nn(-c2ccccc2)c(N)c1N=Nc1ccccc1
4. CSc1nc(C)c(Cl)c(SC)n1

output:
1: 96 % of control; 2: 97 % of control; 3: 98 % of control; 4: 97 % of control

List reported T/C for each of these molecules:
1. Oc1ccc(CCNCc2cc3c(cc2Br)OCO3)cc1
2. Cc1cc(O)c(C(C)C)cc1C1=NCC(C)S1 (stereo not given)
3. O=C(/C=C(\C(=O)c1ccccc1)c1ccccc1)c1ccccc1
4. Clc1ccc(CSc2nc3ccccc3[nH]2)cc1
5. COC(=O)C1=C(C(=O)OC)C2C=CC1C2

output:
["108 % of control", "102 % of control", "102 % of control", "103 % of control", "91 % of control"]

----------
- Test system: L1210 leukemia ip in BDF1 mice, survival T/C
- assayExplanation: NCI In Vivo Anticancer Drug Screen. Data for tumor model L1210 Leukemia (intraperitoneal) in B6D2F1 (BDF1) mice
- conditionSummary: endpoint: mean survival time; dose: 50.0 mg/kg/injection; schedule: Q04DX003 (ip); vehicle: saline with Tween-80; higher = longer survival
- Procedure: The antitumor activity of compounds was measured in mice bearing transplantable tumors. Survival or tumor size were measured and the results are expressed as the measurement made in the treated group (T) divided by the measurement made in the vehicle treated control group (C). The tumor model used in this assay is L1210 Leukemia (intraperitoneal) in B6D2F1 (BDF1) mice
Toxic doses and inconclusive results are not listed.
reportedProperty: T/C

Would you please look over these solved cases?
| molecule | reportedProperty | recordedValue |
| --- | --- | --- |
| COc1ccc(N=Cc2cccc(OC)c2O)cc1.COc1ccc(N=Cc2cccc(OC)c2O)cc1.[Co] | T/C | 92 % of control |
| N#CC1(C#N)C2C=CC(C3C(Cl)C=CC32)C1(C#N)C#N (stereo not drawn) | T/C | 97 % of control |

Pending molecule:
input: Quick one: T/C of `Cn1nnc(N/N=C/c2ccccc2)n1` ?
output: 95 % of control

----------
- Test system: L1210 leukemia ip in BDF1 mice, survival T/C
- assayExplanation: NCI In Vivo Anticancer Drug Screen. Data for tumor model L1210 Leukemia (intraperitoneal) in B6D2F1 (BDF1) mice
- conditionSummary: endpoint: mean survival time; dose: 400.0 mg/kg/injection; schedule: Q01DX009 (ip); vehicle: saline with Tween-80; higher = longer survival
Inconclusive results and toxic doses are left out.
reportedProperty: T/C

Would you please look over these solved cases?
| molecule | experimentalTarget | recordedValue |
| --- | --- | --- |
| CCCCCCCCC1SC1CCCCCCCC(=O)OCCOCCOCC (centres undefined) | L1210 leukemia ip in BDF1 mice, survival T/C | 95 % of control |
| CCCCCCCCC1SC1CCCCCCCC(=O)OCCCOC(=O)CCCCCCCC1SC1CCCCCCCC (centres undefined) | L1210 leukemia ip in BDF1 mice, survival T/C | 96 % of control |

List reported T/C for each of these molecules:
1. COc1cccc(NC(=O)CCC(=O)O)c1
2. CS(=O)(=O)OCC(OS(C)(=O)=O)C(COS(C)(=O)=O)OS(C)(=O)=O (centres undefined)
3. O=S(=O)(O)c1cccc2cccc(Cl)c12
4. CC(=O)OCC(=O)c1cc(C)n(C)c(=O)c1CN1C(=O)c2ccccc2C1=O
5. COC1OC2COC(c3ccccc3)OC2C2OC12 (centres undefined)
6. CC(=S)Nc1ccc2ccccc2c1
7. Cc1ccc(C)c(NC(=O)N(C2CCCCC2)C2CCCCC2)c1

output:
1. 95 % of control
2. 96 % of control
3. 96 % of control
4. 108 % of control
5. 97 % of control
6. 109 % of control
7. 107 % of control

----------
- Test system: L1210 leukemia ip in BDF1 mice, survival T/C
- assayExplanation: NCI In Vivo Anticancer Drug Screen. Data for tumor model L1210 Leukemia (intraperitoneal) in B6D2F1 (BDF1) mice
- conditionSummary: endpoint: mean survival time; dose: 400.0 mg/kg/injection; schedule: Q04DX003 (ip); vehicle: saline with Tween-80; higher = longer survival
Inconclusive results and toxic doses are left out.
reportedProperty: T/C

| compound | experimentalTarget | recordedValue |
| --- | --- | --- |
| COc1cc(C(=O)N2CCOC23CCN(Cc2ccccc2)CC3)cc(OC)c1OC | L1210 leukemia ip in BDF1 mice, survival T/C | 100 % of control |
| COc1cccc2sc3ccccc3c(=O)c12 | L1210 leukemia ip in BDF1 mice, survival T/C | 87 % of control |
| COc1ccc(C=Nc2ccccc2N=Cc2ccc(OC)c(OC)c2)cc1OC | L1210 leukemia ip in BDF1 mice, survival T/C | 93 % of control |
| OC1(c2ccccc2)c2ccccc2-c2ccccc21 | L1210 leukemia ip in BDF1 mice, survival T/C | 95 % of control |

List reported T/C for each of these compounds:
1. Nc1ccc2ncsc2c1
2. O=C(O)C1(c2ccc(-c3ccccc3)cc2)CCCCC1
3. C=CCOC(=O)Nc1cccc(OC(=O)NC)c1
4. Cc1ccc(NC(=O)c2ccc([N+](=O)[O-])cc2)c(C)c1
5. O=C1C2CCCCC2C(=O)N1C1=NC=NC2=NC=NC21 (stereo unspecified)
6. CCCCCCOC(CN(C)C)C(Cl)(Cl)Cl (stereo unspecified)
7. Cc1c(N)nc(Br)c2ccccc12

output:
98 % of control
100 % of control
100 % of control
99 % of control
95 % of control
98 % of control
110 % of control
